Please go through the items and note down their inhibition.
System: LYPLA1
protocolNotes: LYPLA1/LYPLA2 inhibition with serine hydrolase anti-target selectivity, late-stage follow-up, selectivity assay for LYPLA1/LYPLA2 inhibitor project, cell lysate, mouse brain membrane proteome, FP-Rh fluorescence, powders (AID 743117)
conditionContext: gel-based ABPP FP-Rh fluorescence, at 100 µM (top of the series)
Respond with the bare value in %.

Q) Notebook: pull reported inhibition for LYPLA1, entry O=C(ON1C(=O)C2CN(C(=O)c3ccc(F)c([N+](=O)[O-])c3)CCN2C1=O)N1CCC(CCc2ccc(Cl)cc2)CC1 (configuration not stated)
A) 100

Q) Notebook: pull reported inhibition for LYPLA1, entry O=C(ON1C(=O)C2CN(CCc3ccccc3)CCN2C1=O)N1CCC(CCc2ccc(Cl)cc2)CC1 (configuration not stated)
A) 100

Q) Notebook: pull reported inhibition for LYPLA1, entry CC(C)(C)OC(=O)N1CCN2C(=O)N(OC(=O)N3CCN(C(c4ccc(Cl)cc4)c4ccc(Cl)cc4)CC3)C(=O)C2C1 (configuration not stated)
A) 60

Q) Notebook: pull reported inhibition for LYPLA1, entry O=C(ON1C(=O)C2CN(C(=O)N3CCOCC3)CCN2C1=O)N1CCC(CCc2ccc(Cl)cc2)CC1 (configuration not stated)
A) 100

Q) Notebook: pull reported inhibition for LYPLA1, entry CC(C)(C)OC(=O)N1CCN2C(=O)N(OC(=O)N3CCC(CCc4ccc(Cl)cc4)CC3)C(=O)C2C1 (configuration not stated)
A) 100

Q) Notebook: pull reported inhibition for LYPLA1, entry O=C(ON1C(=O)C2CN(Cc3ccc(Br)cc3)CCN2C1=O)N1CCC(CCc2ccc(Cl)cc2)CC1 (configuration not stated)
A) 90

Q) Notebook: pull reported inhibition for LYPLA1, entry CN(C)c1ccc(C(=O)N2CCN3C(=O)N(OC(=O)N4CCC(CCc5ccc(Cl)cc5)CC4)C(=O)C3C2)cc1 (configuration not stated)
A) 100

Q) Notebook: pull reported inhibition for LYPLA1, entry COc1ccc(C(=O)N2CCN3C(=O)N(OC(=O)N4CCC(CCc5ccc(Cl)cc5)CC4)C(=O)C3C2)cc1 (configuration not stated)
A) 100

Q) Notebook: pull reported inhibition for LYPLA1, entry CC(C)(C)OC(=O)N1CCN2C(=O)N(OC(=O)N3CCC(C(=O)Nc4ccccc4)CC3)C(=O)C2C1 (configuration not stated)
A) 50

Q) Notebook: pull reported inhibition for LYPLA1, entry O=C(Cc1ccccc1)N1CCN2C(=O)N(OC(=O)N3CCC(CCc4ccc(Cl)cc4)CC3)C(=O)C2C1 (configuration not stated)
A) 100

Q) Notebook: pull reported inhibition for LYPLA1, entry CC(C)(C)CC(=O)N1CCN2C(=O)N(OC(=O)N3CCC(CCc4ccc(Cl)cc4)CC3)C(=O)C2C1 (configuration not stated)
A) 100

Q) Notebook: pull reported inhibition for LYPLA1, entry CC(C)(C)OC(=O)N1CCN2C(=O)N(OC(=O)N3CCN(CCc4ccccc4)CC3)C(=O)C2C1 (configuration not stated)
A) 90

Q) Notebook: pull reported inhibition for LYPLA1, entry O=C(ON1C(=O)C2CN(C(=O)c3ccc(Br)cc3)CCN2C1=O)N1CCC(CCc2ccc(Cl)cc2)CC1 (configuration not stated)
A) 100

Q) Notebook: pull reported inhibition for LYPLA1, entry CC(C)(C)OC(=O)N1CCN2C(=O)N(OC(=O)N3CCOCC3Cc3ccccc3)C(=O)C2C1 (configuration not stated)
A) 0

Q) Notebook: pull reported inhibition for LYPLA1, entry CC(C)(C)OC(=O)N1CCN2C(=O)N(OC(=O)N3CCCCC3)C(=O)C2C1 (configuration not stated)
A) 25

Q) Notebook: pull reported inhibition for LYPLA1, entry Cc1ccc(C(=O)N2CCN3C(=O)N(OC(=O)N4CCC(CCc5ccc(Cl)cc5)CC4)C(=O)C3C2)cc1 (configuration not stated)
A) 100

Q) Notebook: pull reported inhibition for LYPLA1, entry O=C(ON1C(=O)C2CN(C(=O)N3CCCCC3)CCN2C1=O)N1CCC(CCc2ccc(Cl)cc2)CC1 (configuration not stated)
A) 100
